- Run Description: Metabolic (microsomal) stability assay, mouse liver microsomes (MLM)
- Format: in vitro ADME
- Experimental Context: 1 μM test compound, 37° C.
Labelling: MLM [% QH] reported below 50 % QH becomes Met; at or above becomes Not met.

Request: Take the compound Cc1nc(N[C@H](C)c2cccc(C(F)F)c2F)c2cn([C@H]3C[C@@H]3C(F)F)c(=O)c(F)c2n1 and say whether its MLM [% QH] is less than 50 % QH.
Response: Met

Request: Take the compound Cc1nc(N[C@H](C)c2cccc(C(C)(F)F)c2F)c2cn(C3(C(F)F)CC3)c(=O)cc2n1 and say whether its MLM [% QH] is less than 50 % QH.
Response: Not met

Request: Take the compound Cc1nc(N[C@H](C)c2cccc(C(F)F)c2F)c2cn(C3(C)CC(F)(F)C3)c(=O)cc2n1 and say whether its MLM [% QH] is less than 50 % QH.
Response: Met

Request: Take the compound Cc1nc(N[C@H](C)c2cccc(C(F)(F)F)c2)c2cn(C3(C)CC3)c(=O)cc2n1 and say whether its MLM [% QH] is less than 50 % QH.
Response: Met

Request: Take the compound Cc1nc(N[C@H](C)c2cccc(C(F)(F)F)c2F)c2cn(C3(C(F)F)CC3)c(=O)cc2n1 and say whether its MLM [% QH] is less than 50 % QH.
Response: Met

Request: Take the compound C[C@@H](Nc1ncnc2cc(=O)n([C@H]3C[C@H](F)C3)cc12)c1cccc(C(F)F)c1F and say whether its MLM [% QH] is less than 50 % QH.
Response: Met

Request: Take the compound C[C@@H](Nc1ncnc2cc(=O)n(C34CC(F)(C3)C4)cc12)c1cccc(C(F)F)c1F and say whether its MLM [% QH] is less than 50 % QH.
Response: Met

Request: Take the compound Cc1nc(N[C@H](C)c2cccc(C(F)(F)F)c2C)c2cn([C@H]3C[C@](O)(C(F)(F)F)C3)c(=O)cc2n1 and say whether its MLM [% QH] is less than 50 % QH.
Response: Met

Request: Take the compound Cc1nc(N[C@H](C)c2cccc(C(F)F)c2F)c2cn([C@]3(C(F)(F)F)CCOC3)c(=O)c(F)c2n1 and say whether its MLM [% QH] is less than 50 % QH.
Response: Not met

Request: Take the compound Cc1nc(N[C@H](C)c2cccc(C(F)F)c2F)c2cn(C3(CF)CC3)c(=O)c(F)c2n1 and say whether its MLM [% QH] is less than 50 % QH.
Response: Not met

Request: Take the compound Cc1c(=O)n([C@H]2C[C@@H]2C(F)F)cc2c(N[C@H](C)c3cccc(C(F)F)c3F)ncnc12 and say whether its MLM [% QH] is less than 50 % QH.
Response: Not met

Request: Take the compound Cc1nc(N[C@H](C)c2cccc(C(F)F)c2F)c2cn([C@H]3C[C@H](F)C3)c(=O)c(F)c2n1 and say whether its MLM [% QH] is less than 50 % QH.
Response: Met

Request: Take the compound Cc1nc(N[C@H](C)c2cccc(C(F)(F)F)c2)c2cn(C(C)C)c(=O)cc2n1 and say whether its MLM [% QH] is less than 50 % QH.
Response: Not met

Request: Take the compound Cc1nc(N[C@H](C)c2cccc(C(F)F)c2F)c2cn(C3(C(F)(F)F)CC3)c(=O)cc2n1 and say whether its MLM [% QH] is less than 50 % QH.
Response: Met

Request: Take the compound Cc1nc(N[C@H](C)c2cccc(C(F)F)c2F)c2cn([C@H](C)C(F)(F)F)c(=O)cc2n1 and say whether its MLM [% QH] is less than 50 % QH.
Response: Met

Request: Take the compound Cc1c(=O)n(-c2cnn(C)c2)cc2c(N[C@H](C)c3cccc(C(F)F)c3F)ncnc12 and say whether its MLM [% QH] is less than 50 % QH.
Response: Not met

Request: Take the compound C[C@@H](Nc1ncnc2c(F)c(=O)n(C3(C(F)F)CC3)cc12)c1cccc(C(F)F)c1F and say whether its MLM [% QH] is less than 50 % QH.
Response: Met

Request: Take the compound Cc1nc(N[C@H](C)c2cccc(C(F)(F)F)c2)c2cn(C3(C(F)F)CC3)c(=O)cc2n1 and say whether its MLM [% QH] is less than 50 % QH.
Response: Met

Request: Take the compound Cc1nc(N[C@H](C)c2cccc(C(F)(F)C(C)(C)O)c2F)c2cn(C3(C)CC3)c(=O)c(F)c2n1 and say whether its MLM [% QH] is less than 50 % QH.
Response: Met

Request: Take the compound Cc1nc(N[C@H](C)c2cccc(C(C)(F)F)c2)c2cn(C3(C)CC3)c(=O)cc2n1 and say whether its MLM [% QH] is less than 50 % QH.
Response: Met
